Test system: biotinyl-Leu-oxazolone
Test: self-aminoacylation, catalytic enhancement (BLO) (fold over background); higher = more active; k-Seq, kA / k0A0; sequences stand for … in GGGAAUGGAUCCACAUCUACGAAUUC…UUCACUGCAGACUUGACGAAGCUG
Variants at the floor of the assay were thinned out.
The entries below are paired with their reported self-aminoacylation.

MACROMOLECULE SEQUENCE: AGUCACCUACGUCAUCGGGUG [Fam2.2 aminoacylation ribozyme variant]
self-aminoacylation: 6.83
//
MACROMOLECULE SEQUENCE: CCACACUUCAAGCGAUCAGUC [Fam1B.1 aminoacylation ribozyme variant]
self-aminoacylation: 0.665
//
MACROMOLECULE SEQUENCE: AUUACGCUGGUCAACGAGUGA [Fam2.1 aminoacylation ribozyme variant]
self-aminoacylation: 3
//
MACROMOLECULE SEQUENCE: AAUCACCUAGGUCAUCGGCUG [Fam2.2 aminoacylation ribozyme variant]
self-aminoacylation: 2.14
//
MACROMOLECULE SEQUENCE: CCACACUUCAUGCAAUGGGUC [Fam1B.1 aminoacylation ribozyme variant]
self-aminoacylation: 0.704
//
MACROMOLECULE SEQUENCE: GUUCACCUAGGUCAUCGGCUG [Fam2.2 aminoacylation ribozyme variant]
self-aminoacylation: 2.04
//
MACROMOLECULE SEQUENCE: CUACUGCAAACAAUUGGUCUG [Fam1A.1 aminoacylation ribozyme variant]
self-aminoacylation: 0.823
//
MACROMOLECULE SEQUENCE: CCCCACUUCAAACAAUCGGUC [Fam1B.1 aminoacylation ribozyme variant]
self-aminoacylation: 2.83
//
MACROMOLECULE SEQUENCE: CCUCACUUCAUGCAAUCGGUC [Fam1B.1 aminoacylation ribozyme variant]
self-aminoacylation: 0.735
//
MACROMOLECULE SEQUENCE: AUUACGCUCGUCAUCGAGUGA [Fam2.1 aminoacylation ribozyme variant]
self-aminoacylation: 2.5
//
MACROMOLECULE SEQUENCE: CGACACUUCGAGCAAUCGGUC [Fam1B.1 aminoacylation ribozyme variant]
self-aminoacylation: 1.18
//
MACROMOLECULE SEQUENCE: CCACAAUUCAAGCAAUGGGUC [Fam1B.1 aminoacylation ribozyme variant]
self-aminoacylation: 1.17
//
MACROMOLECULE SEQUENCE: UAGUUUGCUACUAGUCGCAAG [Fam3.1 aminoacylation ribozyme variant]
self-aminoacylation: 1.23
//
MACROMOLECULE SEQUENCE: AUUAAGCUAGGUCAUCGGGUG [Fam2.2 aminoacylation ribozyme variant]
self-aminoacylation: 5.1
//
MACROMOLECULE SEQUENCE: CUGCUUCAGACAAUCGGUCUG [Fam1A.1 aminoacylation ribozyme variant]
self-aminoacylation: 1.1
//
MACROMOLECULE SEQUENCE: CCACACUUCAAGAUAUCGGUC [Fam1B.1 aminoacylation ribozyme variant]
self-aminoacylation: 0.736
//
MACROMOLECULE SEQUENCE: AAGUUUGCAUAUAGUCGCAAG [Fam3.1 aminoacylation ribozyme variant]
self-aminoacylation: 0.744
//
MACROMOLECULE SEQUENCE: AAGUUUGCUAAUACUGGCAAG [Fam3.1 aminoacylation ribozyme variant]
self-aminoacylation: 0.696

----------
System: biotinyl-Val-oxazolone
Assay: self-aminoacylation, catalytic enhancement (BVO) (fold over background); higher = more active; k-Seq, kA / k0A0; sequences stand for … in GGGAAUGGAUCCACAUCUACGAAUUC…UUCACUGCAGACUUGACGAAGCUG
This sample holds only a part of the variants without activity.

MACROMOLECULE SEQUENCE: AGUAACCUAGGUCAUCGGGUG [Fam2.2 aminoacylation ribozyme variant]
self-aminoacylation: 3.63
//
MACROMOLECULE SEQUENCE: UCACACUUCACGCAAUCGGUC [Fam1B.1 aminoacylation ribozyme variant]
self-aminoacylation: 1.21
//
MACROMOLECULE SEQUENCE: AAGUUUGCUAAUAGUCGCCCG [Fam3.1 aminoacylation ribozyme variant]
self-aminoacylation: 2.69
//
MACROMOLECULE SEQUENCE: AUUACCUUGGUCAUCGAGUGU [Fam2.1 aminoacylation ribozyme variant]
self-aminoacylation: 2.37
//
MACROMOLECULE SEQUENCE: AUCACCCUGUUCAUCGAGUGA [Fam2.1 aminoacylation ribozyme variant]
self-aminoacylation: 2.78
//
MACROMOLECULE SEQUENCE: CUACUUCAAAUAAUCGCUCUG [Fam1A.1 aminoacylation ribozyme variant]
self-aminoacylation: 0.637
//
MACROMOLECULE SEQUENCE: CUACUUCAAACAAUCGCUCUC [Fam1A.1 aminoacylation ribozyme variant]
self-aminoacylation: 1.02
//
MACROMOLECULE SEQUENCE: CUACUGCAAACAAUUGGUCUG [Fam1A.1 aminoacylation ribozyme variant]
self-aminoacylation: 1.07
